The reported measurements were obtained from ChEMBL document CHEMBL5291721.

Below, each of the molecules is paired with its reported AC50 value.
Molecular target: Vasopressin V1a receptor (Homo sapiens); note: assay procedure not described here
Sequence (P37288 whole entry): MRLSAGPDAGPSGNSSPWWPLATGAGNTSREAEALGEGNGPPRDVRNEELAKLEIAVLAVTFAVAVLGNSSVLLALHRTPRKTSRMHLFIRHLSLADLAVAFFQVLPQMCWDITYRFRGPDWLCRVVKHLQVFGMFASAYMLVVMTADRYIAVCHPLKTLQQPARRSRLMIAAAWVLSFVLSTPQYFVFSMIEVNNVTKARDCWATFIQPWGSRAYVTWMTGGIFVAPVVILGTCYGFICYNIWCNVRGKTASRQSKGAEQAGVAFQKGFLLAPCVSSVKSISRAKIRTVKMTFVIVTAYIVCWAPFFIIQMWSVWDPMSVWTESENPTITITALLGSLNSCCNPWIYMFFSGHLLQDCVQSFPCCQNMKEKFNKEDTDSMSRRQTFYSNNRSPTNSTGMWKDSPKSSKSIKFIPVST

- molecule: "Cc1c(C(=O)NN2CCCCC2)nn(-c2ccc(Cl)cc2Cl)c1-c1ccc(Cl)cc1"
  resultType: "AC50"
  assayValue: "30 µM"

Look up AC50 for this molecule: CCC(C)n1ncn(-c2ccc(N3CCN(c4ccc(OCC5COC(Cn6cncn6)(c6ccc(Cl)cc6Cl)O5)cc4)CC3)cc2)c1=O (centres undefined)
> 30 µM

I would be grateful if you could share the reported AC50 for CN1C(=O)CCS(=O)(=O)C1c1ccc(Cl)cc1 (centres undefined) .
> 10 µM

Can you share its AC50? I mean this molecule: O=C(O)/C=C/c1ccc(Cn2ccnc2)cc1
> 30 µM

I would be grateful if you could share the reported AC50 for CN(C)CCc1c[nH]c2ccc(C[C@H]3COC(=O)N3)cc12 .
> 30 µM

GET /values?readout=AC50&item= CCN(CC)C(=O)N[C@H]1C[C@@H]2c3cccc4[nH]cc(c34)C[C@H]2N(C)C1 [TERGURIDE]
> 30 µM

---

compounds and their reported AC50
Target: Prostaglandin G/H synthase 1 (Rattus norvegicus, UniProt Q63921); note: assay procedure not described here
Sequence (Q63921 whole entry): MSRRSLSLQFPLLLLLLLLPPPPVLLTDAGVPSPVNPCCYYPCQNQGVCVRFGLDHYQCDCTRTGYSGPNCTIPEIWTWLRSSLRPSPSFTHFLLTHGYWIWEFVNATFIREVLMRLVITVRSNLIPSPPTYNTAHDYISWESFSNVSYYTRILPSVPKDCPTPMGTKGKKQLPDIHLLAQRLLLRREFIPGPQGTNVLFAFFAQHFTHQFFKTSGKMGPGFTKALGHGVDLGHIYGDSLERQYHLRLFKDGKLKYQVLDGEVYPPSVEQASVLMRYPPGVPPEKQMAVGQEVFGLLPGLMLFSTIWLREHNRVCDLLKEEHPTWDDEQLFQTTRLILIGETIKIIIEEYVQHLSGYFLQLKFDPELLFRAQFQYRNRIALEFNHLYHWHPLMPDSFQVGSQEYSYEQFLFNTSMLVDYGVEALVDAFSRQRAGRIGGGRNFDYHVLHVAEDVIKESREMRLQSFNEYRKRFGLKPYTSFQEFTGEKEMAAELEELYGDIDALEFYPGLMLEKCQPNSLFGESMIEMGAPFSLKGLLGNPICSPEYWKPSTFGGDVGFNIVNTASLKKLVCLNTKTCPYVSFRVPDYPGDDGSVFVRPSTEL
Format: functional

Example results:
- compound: "Cc1nnc2n1-c1ccc(Cl)cc1C(c1ccccc1Cl)=NC2 [TRIAZOLAM]"
  AC50: "> 30 µM"
- compound: "CN(C)CCC(c1ccc(Cl)cc1)c1ccccn1 (configuration not stated) [CHLORPHENIRAMINE]"
  AC50: "> 30 µM"
- compound: "O=C(O)c1cc(O)ccc1O [GENTISIC ACID]"
  AC50: "18 µM"
- compound: "O=C(O)C[C@H](O)C[C@H](O)/C=C/c1c(C2CC2)nc2ccccc2c1-c1ccc(F)cc1 [PITAVASTATIN]"
  AC50: "> 30 µM"
- compound: "Cn1nnc2c(C(N)=O)ncn2c1=O [TEMOZOLOMIDE]"
  AC50: "> 30 µM"

Using the record for O=C(O)/C=C/c1ccc(Cn2ccnc2)cc1 [OZAGREL] , report its AC50.
> 30 µM

Fill in the blank: the reported AC50 of CN(C)CCC=C1c2ccccc2C=Cc2ccccc21 [CYCLOBENZAPRINE] is ____.
> 30 µM

Please report the recorded AC50 for CC1(C)O[C@@H]2C[C@H]3[C@@H]4CCC5=CC(=O)C=C[C@]5(C)[C@H]4[C@@H](O)C[C@]3(C)[C@]2(C(=O)CO)O1 [DESONIDE] .
> 10 µM

AC50 lookup needed for CO[C@@H]1[C@@H](O[C@@H]2O[C@H](C)[C@@H](O[C@H]3C[C@@](C)(O)[C@@H](OC(=O)CC(C)C)[C@H](C)O3)[C@H](N(C)C)[C@H]2O)[C@@H](CC=O)C[C@@H](C)[C@@H](O)/C=C/C=C/C[C@@H](C)OC(=O)C[C@H]1OC(C)=O [JOSAMYCIN] , thanks.
> 10 µM

Which value of AC50 has been reported for CC(=O)OCC(=O)[C@@]12N=C(C)O[C@@H]1C[C@H]1[C@@H]3CCC4=CC(=O)C=C[C@]4(C)[C@H]3[C@@H](O)C[C@@]12C [DEFLAZACORT] in the records?
> 30 µM

Which AC50 is listed for CC[C@H]1[C@@H](O)[C@@H]2[C@H](CC[C@]3(C)[C@@H]([C@H](C)CCC(=O)O)CC[C@@H]23)[C@@]2(C)CC[C@@H](O)C[C@@H]12 [OBETICHOLIC ACID] ?
27 µM

Name the reported AC50 value associated with the compound Nc1nc(Cl)nc2c1ncn2[C@H]1C[C@H](O)[C@@H](CO)O1 [CLADRIBINE]
> 30 µM

AC50 lookup needed for Cc1cc(C(C)(C)C)c(O)c(C)c1CC1=NCCN1 [OXYMETAZOLINE] , thanks.
> 30 µM

Given Cc1cn([C@H]2C=C[C@@H](CO)O2)c(=O)[nH]c1=O [STAVUDINE] , state its recorded AC50.
> 30 µM

# input compound: COc1ccc(CC(C)(C)NC[C@H](O)c2cc(O)cc3c2OCC(=O)N3)cc1 [OLODATEROL] ; wanted: its AC50
17.5 µM

Give the measured AC50 of COc1cc(NC(C)CCCN)c2ncccc2c1 (configuration not stated) [PRIMAQUINE] .
> 30 µM

Find the recorded AC50 belonging to CN(C)/N=N/c1[nH]cnc1C(N)=O [DACARBAZINE] and report it.
> 10 µM

---

Below are compounds with their AC50 as measured on UniProt P37288.

Previously resolved entries follow.
- compound: "NC(=O)OCC(COC(N)=O)c1ccccc1 [FELBAMATE]"
  AC50: "> 10 µM"
- compound: "CS(=O)(=O)c1ccc(C2=C(c3ccccc3)C(=O)OC2)cc1 [ROFECOXIB]"
  AC50: "> 10 µM"
- compound: "CNS(=O)(=O)Cc1ccc2[nH]cc(CCN(C)C)c2c1"
  AC50: "> 10 µM"

Which AC50 is reported for this compound? Fc1ccc(C(c2ccccc2)(c2ccccc2F)n2ccnc2)cc1 (stereo not given) [FLUTRIMAZOLE]
> 30 µM

Could you tell me which AC50 is on file for C[C@]12CCC(=O)C=C1CC[C@@H]1[C@@H]2[C@@H](O)C[C@@]2(C)[C@H]1CC[C@]2(O)C(=O)CO [HYDROCORTISONE] ?
> 10 µM

---

Molecular target: Histamine H2 receptor (Homo sapiens); note: assay procedure not described here
Sequence (P25021 whole entry): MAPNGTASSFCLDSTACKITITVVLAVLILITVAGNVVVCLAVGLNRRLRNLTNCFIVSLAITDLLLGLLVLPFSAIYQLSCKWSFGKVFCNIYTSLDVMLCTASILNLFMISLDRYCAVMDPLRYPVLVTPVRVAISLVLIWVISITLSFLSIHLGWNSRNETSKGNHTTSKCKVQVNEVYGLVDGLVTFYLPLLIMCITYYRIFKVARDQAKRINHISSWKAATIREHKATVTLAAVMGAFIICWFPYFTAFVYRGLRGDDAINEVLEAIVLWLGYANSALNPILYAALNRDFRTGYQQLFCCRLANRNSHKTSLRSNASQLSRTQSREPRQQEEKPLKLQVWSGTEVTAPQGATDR
Format: functional, cell-based
resultType: AC50

- compound: "CC(C)C[C@H]1C(=O)N2CCC[C@H]2[C@]2(O)O[C@](NC(=O)[C@@H]3C=C4c5cccc6[nH]c(Br)c(c56)C[C@H]4N(C)C3)(C(C)C)C(=O)N12"
  AC50: "2.13 µM"
- compound: "O=C1Nc2ccc(Cl)cc2[C@@](C#CC2CC2)(C(F)(F)F)O1"
  AC50: "> 10 µM"
- compound: "COc1ccc(CCN(C)CCCC(C#N)(c2cc(OC)c(OC)c(OC)c2)C(C)C)cc1OC (stereo not given)"
  AC50: "> 30 µM"
- compound: "CN1C(=O)C(O)N=C(c2ccccc2)c2cc(Cl)ccc21 (stereo not given)"
  AC50: "> 10 µM"

Turning to the following compound.
Report AC50 for COc1cc2c(N)nc(N3CCN(C(=O)OCC(C)(C)O)CC3)nc2c(OC)c1OC please.
> 30 µM

---

Target: Mu-type opioid receptor (Homo sapiens); note: assay procedure not described here
Sequence (P35372 whole entry): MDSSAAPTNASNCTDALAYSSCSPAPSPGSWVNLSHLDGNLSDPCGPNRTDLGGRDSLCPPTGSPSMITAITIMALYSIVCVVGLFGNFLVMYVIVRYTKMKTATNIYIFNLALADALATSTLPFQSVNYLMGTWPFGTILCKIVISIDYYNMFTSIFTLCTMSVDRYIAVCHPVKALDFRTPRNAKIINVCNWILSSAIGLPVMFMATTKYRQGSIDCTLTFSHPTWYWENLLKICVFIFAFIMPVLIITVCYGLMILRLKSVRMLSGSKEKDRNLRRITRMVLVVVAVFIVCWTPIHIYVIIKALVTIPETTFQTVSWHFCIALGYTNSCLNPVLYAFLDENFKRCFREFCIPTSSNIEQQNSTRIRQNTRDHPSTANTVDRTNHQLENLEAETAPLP
Measured AC50 by item

Example cases with answers are listed next.
- compound: "CC(C)C[C@H]1C(=O)N2CCC[C@H]2[C@]2(O)O[C@](NC(=O)[C@@H]3C=C4c5cccc6[nH]c(Br)c(c56)C[C@H]4N(C)C3)(C(C)C)C(=O)N12"
  AC50: "3.45 µM"
- compound: "CC(C)C[C@H]1C(=O)N2CCC[C@H]2[C@]2(O)O[C@](NC(=O)[C@@H]3C[C@@H]4c5cccc6[nH]cc(c56)C[C@H]4N(C)C3)(C(C)C)C(=O)N12 [DIHYDROERGOCRYPTINE]"
  AC50: "10.3 µM"
- compound: "C=CCN1C[C@H](C(=O)N(CCCN(C)C)C(=O)NCC)C[C@@H]2c3cccc4[nH]cc(c34)C[C@H]21"
  AC50: "> 30 µM"
- compound: "C[C@]12CC[C@@H]3c4ccc(O)cc4CC[C@H]3[C@@H]1C[C@@H](O)[C@@H]2O"
  AC50: "> 30 µM"
- compound: "CCc1oc2ccccc2c1C(=O)c1cc(I)c(O)c(I)c1"
  AC50: "9.64 µM"

Give Mu-type opioid receptor (Homo sapiens) AC50 for Clc1cc(Cl)c(OCC#CI)cc1Cl
12.3 µM

Notebook: pull reported AC50 for Mu-type opioid receptor (Homo sapiens), entry CC1(C)NC(=O)N(c2ccc([N+](=O)[O-])c(C(F)(F)F)c2)C1=O [NILUTAMIDE]
> 30 µM

---

Target: cGMP-inhibited 3',5'-cyclic phosphodiesterase 3A (Homo sapiens, UniProt Q14432); note: assay procedure not described here
Sequence (Q14432 whole entry): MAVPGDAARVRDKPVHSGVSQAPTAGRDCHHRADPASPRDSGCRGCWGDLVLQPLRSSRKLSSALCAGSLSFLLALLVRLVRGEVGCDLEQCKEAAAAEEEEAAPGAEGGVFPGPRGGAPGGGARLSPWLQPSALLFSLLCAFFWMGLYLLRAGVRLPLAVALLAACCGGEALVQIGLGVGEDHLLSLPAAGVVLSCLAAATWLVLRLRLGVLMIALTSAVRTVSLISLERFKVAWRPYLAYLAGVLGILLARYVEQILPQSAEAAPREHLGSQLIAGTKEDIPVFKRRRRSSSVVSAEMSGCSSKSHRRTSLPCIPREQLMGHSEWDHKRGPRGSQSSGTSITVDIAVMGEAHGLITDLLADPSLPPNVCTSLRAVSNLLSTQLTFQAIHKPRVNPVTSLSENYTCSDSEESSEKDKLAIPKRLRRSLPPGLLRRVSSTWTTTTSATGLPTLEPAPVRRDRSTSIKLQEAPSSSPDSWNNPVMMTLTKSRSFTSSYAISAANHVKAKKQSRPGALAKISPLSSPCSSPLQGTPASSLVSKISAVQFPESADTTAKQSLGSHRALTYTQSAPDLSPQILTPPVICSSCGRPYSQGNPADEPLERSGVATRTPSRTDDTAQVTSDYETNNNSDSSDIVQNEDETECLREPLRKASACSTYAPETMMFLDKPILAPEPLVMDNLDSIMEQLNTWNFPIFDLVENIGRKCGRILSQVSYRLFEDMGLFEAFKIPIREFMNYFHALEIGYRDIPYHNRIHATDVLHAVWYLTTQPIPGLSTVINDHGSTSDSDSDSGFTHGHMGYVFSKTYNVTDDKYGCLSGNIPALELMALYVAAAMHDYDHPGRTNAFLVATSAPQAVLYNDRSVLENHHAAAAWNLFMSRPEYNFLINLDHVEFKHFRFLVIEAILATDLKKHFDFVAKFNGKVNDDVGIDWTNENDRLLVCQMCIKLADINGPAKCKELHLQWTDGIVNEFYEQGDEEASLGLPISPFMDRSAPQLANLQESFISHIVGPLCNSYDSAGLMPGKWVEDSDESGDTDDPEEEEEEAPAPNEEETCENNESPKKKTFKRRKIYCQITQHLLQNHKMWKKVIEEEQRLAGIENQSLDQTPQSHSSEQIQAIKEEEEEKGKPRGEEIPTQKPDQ
Type: functional
# Lookup of reported AC50 keyed by entry

- structureSmilesString: "CCCCCNC(=N)N/N=C/c1c[nH]c2ccc(OC)cc12"
  resultType: "AC50"
  assayValue: "> 30 µM"
- structureSmilesString: "C[C@H](CSC(=O)c1ccccc1)C(=O)N1C[C@@H](Sc2ccccc2)C[C@H]1C(=O)O"
  resultType: "AC50"
  assayValue: "> 30 µM"

Please turn your attention to the following entry.
// returns reported AC50 for input CO[C@@H]1[C@@H](O[C@@H]2O[C@H](C)[C@@H](O[C@H]3C[C@@](C)(O)[C@@H](OC(=O)CC(C)C)[C@H](C)O3)[C@H](N(C)C)[C@H]2O)[C@@H](CC=O)C[C@@H](C)[C@@H](O)/C=C/C=C/C[C@@H](C)OC(=O)C[C@H]1OC(C)=O
> 30 µM
